Values were extracted from the supplement of paper PMC10065799.

# subject-of-test: FGFR1 (UniProt P11362)
# Sequence (P11362 whole entry, looked up): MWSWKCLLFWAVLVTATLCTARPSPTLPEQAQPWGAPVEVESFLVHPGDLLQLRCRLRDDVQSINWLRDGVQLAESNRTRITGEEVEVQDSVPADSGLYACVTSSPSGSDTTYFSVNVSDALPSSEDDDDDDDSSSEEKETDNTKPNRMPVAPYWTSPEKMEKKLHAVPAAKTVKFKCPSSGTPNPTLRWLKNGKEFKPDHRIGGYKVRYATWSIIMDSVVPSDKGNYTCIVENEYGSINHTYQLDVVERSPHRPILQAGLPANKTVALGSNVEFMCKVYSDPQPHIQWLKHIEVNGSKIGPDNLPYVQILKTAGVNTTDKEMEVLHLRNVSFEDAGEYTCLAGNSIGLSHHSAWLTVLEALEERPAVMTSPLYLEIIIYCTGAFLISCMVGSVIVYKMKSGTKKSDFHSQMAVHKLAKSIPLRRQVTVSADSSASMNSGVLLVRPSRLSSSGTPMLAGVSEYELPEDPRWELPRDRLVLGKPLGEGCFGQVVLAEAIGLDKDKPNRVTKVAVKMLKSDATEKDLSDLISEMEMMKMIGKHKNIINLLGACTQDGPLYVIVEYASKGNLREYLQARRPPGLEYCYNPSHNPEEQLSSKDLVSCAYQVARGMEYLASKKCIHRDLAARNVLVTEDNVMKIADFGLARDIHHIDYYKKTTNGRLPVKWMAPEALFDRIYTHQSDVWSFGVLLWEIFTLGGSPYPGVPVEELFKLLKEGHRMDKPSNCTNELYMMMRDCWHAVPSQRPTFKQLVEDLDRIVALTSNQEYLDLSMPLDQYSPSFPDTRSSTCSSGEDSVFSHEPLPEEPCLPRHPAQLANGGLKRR
# test-method-notes: phosphorylation enrichment, bacterial display (enrichment ratio); higher = better substrate or ligand; peptides without Tyr show the background

{"sequence": "PFRQWYESHFA [RPS8_Y113_YF]", "subject-of-test": "FGFR1 (UniProt P11362)", "phosphorylation enrichment": 0.731}
{"sequence": "DKGTLYIAEQI [PLBD1_Y375_V377A]", "subject-of-test": "FGFR1 (UniProt P11362)", "phosphorylation enrichment": 0.441}
{"sequence": "FGYPGYQCKHY [TIMP3_Y177_S179C]", "subject-of-test": "FGFR1 (UniProt P11362)", "phosphorylation enrichment": 0.46}
{"sequence": "INITIYGKTFC [EFHC1_Y177_R182C]", "subject-of-test": "FGFR1 (UniProt P11362)", "phosphorylation enrichment": 0.581}
{"sequence": "SARHHYESLQT [BIN1_Y157]", "subject-of-test": "FGFR1 (UniProt P11362)", "phosphorylation enrichment": 0.445}
{"sequence": "SLIEHYEPSET [PLCD1_Y258_R257H]", "subject-of-test": "FGFR1 (UniProt P11362)", "phosphorylation enrichment": 0.586}
{"sequence": "CPSLLYSPVSS [CAMKK2_Y128_P127L]", "subject-of-test": "FGFR1 (UniProt P11362)", "phosphorylation enrichment": 1.38}

----------
# Test system: c-Abl (mouse)
# test-method-notes: phosphorylation enrichment, bacterial display (enrichment ratio); higher = better substrate or ligand; peptides without Tyr show the background
phosphorylation enrichment of 0.7 or higher: yes. Under 0.7: no.

{"sequence": "VKPENDRRLDI [VHL_Y175_Y175D]", "class-assignment": "no"}
{"sequence": "EFGFRYELVQF [UGGT2_Y1289_Y1285F_YF]", "class-assignment": "no"}
{"sequence": "ADNSAYLMGLN [MYH7_Y386_K383N]", "class-assignment": "yes"}
{"sequence": "GEEIKDMLWLS [OTC_Y55_Y55D]", "class-assignment": "no"}
{"sequence": "TVMGLYQKSSL [MYH7_Y609_V606M]", "class-assignment": "no"}
{"sequence": "PLRAYYLIARV [HLCS_Y635_D634Y]", "class-assignment": "yes"}
{"sequence": "NVVVPYEPPEV [TP53_Y220_S215N]", "class-assignment": "yes"}
{"sequence": "DLLMQYPKAQG [FAM83C_Y600]", "class-assignment": "no"}
{"sequence": "GGPTYYIDTNA [ACTL6A_Y69]", "class-assignment": "no"}
{"sequence": "FTAVGYHKHFT [NOMO1_Y1137_I1141F]", "class-assignment": "no"}
{"sequence": "SRDTRYLVLAV [AMH_Y195]", "class-assignment": "yes"}

----------
# subject-of-test: SHP2-C SH2
# test-method-notes: SH2 binding enrichment of the phosphorylated peptide, bacterial display (enrichment ratio); higher = better substrate or ligand; peptides without Tyr show the background
Reported SH2 binding enrichment values follow for various sequences
attribute-measured: SH2 binding enrichment

{"sequence": "TTPGPYRSIFF [MPG_Y71_YF]", "attribute-measured": "SH2 binding enrichment", "result-value": 3.79}
{"sequence": "GRLPEYNTPIA [CCDC151_Y542_R545P]", "attribute-measured": "SH2 binding enrichment", "result-value": 0.479}
{"sequence": "YGTAQYCCRMG [LRRK2_Y2023_I2020T]", "attribute-measured": "SH2 binding enrichment", "result-value": 0.752}
{"sequence": "SIKDKHVTALF [KCNH2_Y611_Y611H_YF]", "attribute-measured": "SH2 binding enrichment", "result-value": 0.456}
{"sequence": "MPQNEYIELHR [NSA2_Y6]", "attribute-measured": "SH2 binding enrichment", "result-value": 0.767}
{"sequence": "IMITDYLPLFR [INSR_Y87_L89P]", "attribute-measured": "SH2 binding enrichment", "result-value": 0.857}
{"sequence": "HDRGNYVQLNM [RECQL4_Y353_R355Q]", "attribute-measured": "SH2 binding enrichment", "result-value": 1.18}
{"sequence": "VGRVGYVSGWG [HP_Y280]", "attribute-measured": "SH2 binding enrichment", "result-value": 0.854}
{"sequence": "DLQDEYDFKRK [STAT1_Y170_C174R]", "attribute-measured": "SH2 binding enrichment", "result-value": 0.682}
{"sequence": "DAVCFYRMENA [NPHS2_Y195_I192V_YF]", "attribute-measured": "SH2 binding enrichment", "result-value": 0.674}
{"sequence": "LIHTKYPQLLP [AHCY_Y143]", "attribute-measured": "SH2 binding enrichment", "result-value": 0.725}

----------
# Test system: AncSZ
# test-method-notes: phosphorylation enrichment, bacterial display (enrichment ratio); higher = better substrate or ligand; peptides without Tyr show the background
Please use Fulfilled whenever phosphorylation enrichment is not below 1, and Not fulfilled whenever it is.

{"sequence": "WRPFGYPRRRR [BCS1L_Y181]", "class-assignment": "Not fulfilled"}
{"sequence": "FSNPAYYVLEG [INPPL1_Y986_N982S]", "class-assignment": "Not fulfilled"}
{"sequence": "ALTRSYVREKV [CYP2C8_Y243_I244V]", "class-assignment": "Not fulfilled"}
{"sequence": "AEPHTYEEPGR [EPHA8_Y616]", "class-assignment": "Fulfilled"}
{"sequence": "TKVVHYRKWIK [KLK2_Y249]", "class-assignment": "Not fulfilled"}
{"sequence": "RSDSTYRMSAT [NHS_Y1532_S1531T]", "class-assignment": "Not fulfilled"}
{"sequence": "LTSKPYAFTAW [NDUFS1_Y236_R241W]", "class-assignment": "Not fulfilled"}
{"sequence": "DLLMQYPKAQG [FAM83C_Y600]", "class-assignment": "Not fulfilled"}
{"sequence": "LAETSYVIVLE [MAGEA1_Y276_K278I]", "class-assignment": "Fulfilled"}
{"sequence": "ISDNACQFMLT [MYH7_Y162_Y162C_YF]", "class-assignment": "Not fulfilled"}
{"sequence": "KRNSLYSFSDH [CCDC82_Y331_Q327R]", "class-assignment": "Not fulfilled"}
{"sequence": "HHTDECEFDEL [TGM1_Y134_Y134C_YF]", "class-assignment": "Fulfilled"}
{"sequence": "VSLLPYFPAIM [IPO4_Y518_A513V]", "class-assignment": "Fulfilled"}
{"sequence": "DSGRDYVSQFE [APOA1_Y53]", "class-assignment": "Not fulfilled"}
{"sequence": "KFLENYLNCLL [PLD2_Y169_R172C_YF]", "class-assignment": "Fulfilled"}
{"sequence": "LANNEYFFRVC", "class-assignment": "Fulfilled"}
{"sequence": "LLIVEYAKYGS [RET_Y806]", "class-assignment": "Fulfilled"}
{"sequence": "MWGSDYVHLSR [MAP3K4_Y582_Q584H]", "class-assignment": "Not fulfilled"}
{"sequence": "TTPGPYRSIFF [MPG_Y71_YF]", "class-assignment": "Fulfilled"}
{"sequence": "RHTRSYDFMEG [FGF7_Y56_YF]", "class-assignment": "Not fulfilled"}
{"sequence": "QAIDEYEKWLE [MAP9_Y603_N601D]", "class-assignment": "Fulfilled"}
{"sequence": "LLSVAYQNVVG [YWHAG_Y49_K50Q]", "class-assignment": "Fulfilled"}
{"sequence": "IKELTYQTEED [MYH7_Y1852]", "class-assignment": "Fulfilled"}
{"sequence": "REVPVYIGEDS [SYNM_Y460]", "class-assignment": "Fulfilled"}
{"sequence": "NCFKYYMSDDI [ATRX_Y204]", "class-assignment": "Fulfilled"}

----------
Property: phosphorylation enrichment; scope: individual sequences
# subject-of-test: FGFR1 (UniProt P11362)
# test-method-notes: phosphorylation enrichment, bacterial display (enrichment ratio); higher = better substrate or ligand; peptides without Tyr show the background
attribute-measured: phosphorylation enrichment

{"sequence": "SFPPTYRFERG [INPPL1_Y661_YF]", "subject-of-test": "FGFR1 (UniProt P11362)", "attribute-measured": "phosphorylation enrichment", "result-value": 0.393}
{"sequence": "KTDVHYRSLGG [DYSF_Y1858]", "subject-of-test": "FGFR1 (UniProt P11362)", "attribute-measured": "phosphorylation enrichment", "result-value": 0.334}
{"sequence": "QDGYSYLSRQM [LDLR_Y847_P848L]", "subject-of-test": "FGFR1 (UniProt P11362)", "attribute-measured": "phosphorylation enrichment", "result-value": 0.995}

----------
# subject-of-test: Fyn (UniProt P06241)
# Sequence (P06241 whole entry, looked up): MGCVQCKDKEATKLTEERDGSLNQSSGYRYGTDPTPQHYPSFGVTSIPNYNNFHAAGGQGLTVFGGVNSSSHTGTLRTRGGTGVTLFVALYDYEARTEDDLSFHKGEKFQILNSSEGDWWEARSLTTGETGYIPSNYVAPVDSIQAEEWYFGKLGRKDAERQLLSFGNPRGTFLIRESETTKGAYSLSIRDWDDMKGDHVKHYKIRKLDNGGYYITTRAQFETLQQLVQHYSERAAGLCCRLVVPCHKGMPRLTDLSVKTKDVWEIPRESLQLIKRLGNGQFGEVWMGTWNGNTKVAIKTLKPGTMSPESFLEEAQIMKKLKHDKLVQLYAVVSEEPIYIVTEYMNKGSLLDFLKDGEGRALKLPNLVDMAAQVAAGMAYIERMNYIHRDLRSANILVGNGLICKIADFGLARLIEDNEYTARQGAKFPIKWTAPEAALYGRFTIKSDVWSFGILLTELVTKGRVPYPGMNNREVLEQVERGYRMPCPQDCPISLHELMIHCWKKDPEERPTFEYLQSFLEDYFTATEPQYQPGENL
# test-method-notes: phosphorylation enrichment, bacterial display (enrichment ratio); higher = better substrate or ligand; peptides without Tyr show the background
Label true (1) when phosphorylation enrichment is at or above 0.5; otherwise label false (0).

{"sequence": "SKAFAYVHFDS [PABPC5_Y149_G146A_YF]", "class-assignment": "false (0)"}
{"sequence": "EVKAQNEDIAQ [KRT1_Y358_Y358N]", "class-assignment": "false (0)"}
{"sequence": "ITVCDYTNPCT [MYD88_Y276]", "class-assignment": "false (0)"}
{"sequence": "PVGVLYEVKVF [PTS_Y128_K129E_YF]", "class-assignment": "true (1)"}
{"sequence": "TRSFKCLLLSM [NF1_Y491_Y491C_YF]", "class-assignment": "false (0)"}
{"sequence": "EFENSYIFDIN [GAB1_Y83]", "class-assignment": "true (1)"}
{"sequence": "FKPGFYNLKEK [LAMA1_Y490_C485Y_YF]", "class-assignment": "false (0)"}
{"sequence": "FKGIVYSVSSD [DCX_Y70_A71S]", "class-assignment": "true (1)"}
